Target: T1, HRP3 PWWP domain (residues 1–110) (human, UniProt Q9Y3E1 1-110)
T1 construct: HDGF-related protein 3 (HRP3, HDGFL3), human, residues 1-110 holding the PWWP domain; His-SUMO tag removed by ULP1 protease; also called HRP3 PWWP (1–110); HRP3(1-110); source: E. coli Rosetta (DE3), purified (nickel column, gel filtration), 15N-labelled
T1 sequence (Q9Y3E1 1-110): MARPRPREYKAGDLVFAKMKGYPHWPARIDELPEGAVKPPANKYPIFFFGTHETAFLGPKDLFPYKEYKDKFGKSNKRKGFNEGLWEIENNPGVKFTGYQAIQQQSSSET
Test: NMR titration; 2D 1H-15N HSQC chemical shift perturbation of 15N-labelled HRP3 PWWP (1–110); H3 peptide (29–41) added to molar ratios 1:0 to 1:20; 298 K; 20 mM PBS pH 6.9, 20 mM NaCl, 2 mM DTT; single-site ligand-binding fit
Settings: both partners purified
No end group written: not given here. Me3 = trimethyl-lysine (Lys side chain trimethylated); Me2 = dimethyl-lysine (Lys side chain dimethylated)
metric.name: Kd (µM)

a = APATGGVK(Me3)KPHRY (peptide, UniProt P68431 30-42, looked up, histone H3, residues 29-41; also called H3K36me3 peptide; H3K36me3-containing peptide) [H3K36me3 histone peptide (H3 residues 29–41)]
b = APATGGVK(Me2)KPHRY (peptide, UniProt P68431 30-42, looked up, histone H3, residues 29-41; also called H3K36me2-containing peptide) [H3K36me2 histone peptide (H3 residues 29–41)]
Returns: the argument ( a or b ) having the larger Kd. Your choice should be expressed through its label.
b

FYI, the data here is from paper PMC6547440.
